pEC50 values by entry
- Tested on: Vero
- test_summary: In vitro antiviral activity against measles virus was evaluated.
- Format: functional
- test_context: Chlorocebus sabaeus, read-out: ED50 (the source's name)
pEC50: −log10 of the molar value.

Measured pEC50 (Vero), entry `Oc1[nH]c(Br)nc2nnc(Br)c1-2` : < 2.30

Measured pEC50 (Vero), entry Nc1nc2c(c(Br)nn2C2O[C@H](CO)[C@@H](O)[C@H]2O)c(=O)[nH]1 (stereo partly drawn) : 4.70

Measured pEC50 (Vero), entry Nc1nc2c(c(C(=O)O)nn2C2O[C@H](CO)[C@@H](O)[C@H]2O)c(=O)[nH]1 (stereo partly drawn) : < 2.30

Measured pEC50 (Vero), entry `NC(=O)c1[nH]nc2nc(S)nc(O)c12` : < 3.30

Measured pEC50 (Vero), entry `CSc1nc(O)c2c(C(N)=O)[nH]nc2n1` : < 3.30

Measured pEC50 (Vero), entry COc1nc2c(c(Br)nn2C2O[C@H](CO)[C@@H](O)[C@H]2O)c(=O)[nH]1 (stereo partly drawn) : < 2.60

Measured pEC50 (Vero), entry NC(=O)c1nn(C2O[C@H](CO)[C@@H](O)[C@H]2O)c2nc(N)[nH]c(=O)c12 (stereo partly drawn) : < 3.30

Measured pEC50 (Vero), entry NC(=S)c1nn(C2O[C@H](CO)[C@@H](O)[C@H]2O)c2nc(N)[nH]c(=O)c12 (stereo partly drawn) : 4.19

Measured pEC50 (Vero), entry C[S+]([O-])c1nc(O)c2c(Br)[nH]nc2n1 (stereo not drawn) : < 2.30

Measured pEC50 (Vero), entry `NC(=O)c1ncn([C@@H]2O[C@H](CO)[C@@H](O)[C@H]2O)n1` : 4.48

Measured pEC50 (Vero), entry `NC(=O)c1c[se]c([C@@H]2O[C@H](CO)[C@@H](O)[C@H]2O)n1` : 5.49

Measured pEC50 (Vero), entry `Oc1[nH]c(Br)nc2nncc1-2` : < 2.30

Measured pEC50 (Vero), entry N#Cc1nn(C2O[C@H](CO)[C@@H](O)[C@H]2O)c2nc(N)[nH]c(=O)c12 (stereo partly drawn) : 4.27

====

pEC50 values by entry
- System: Vero
- test_summary: In vitro antiviral activity against herpes simplex virus type 2 virus was evaluated.
- Format: functional
- test_context: Chlorocebus sabaeus, read-out: ED50 (the source's name)
Scale: pEC50 equals -log10([C]), with [C] in mol/L.

Here are 8 compounds together with their reported answers.
# compound, system, pEC50
records = [
    ("Nc1nc2c(c(Br)nn2C2O[C@H](CO)[C@@H](O)[C@H]2O)c(=O)[nH]1 (some centres undefined)", "Vero", 3.74),
    ("Nc1nc2c(cnn2C2O[C@H](CO)[C@@H](O)[C@H]2O)c(=O)[nH]1 (some centres undefined)", "Vero", 2.80),
    ("N#Cc1nn(C2O[C@H](CO)[C@@H](O)[C@H]2O)c2nc(N)[nH]c(=O)c12 (some centres undefined)", "Vero", 4.00),
    ("CSc1nc(O)c2c(C(N)=O)[nH]nc2n1", "Vero", 4.07),
    ("NC(=O)c1c[se]c([C@@H]2O[C@H](CO)[C@@H](O)[C@H]2O)n1", "Vero", 4.85),
    ("C[S+]([O-])c1nc(O)c2c(Br)[nH]nc2n1 (centres undefined)", "Vero", 2.92),
    ("Oc1[nH]c(Br)nc2nncc1-2", "Vero", 2.80),
    ("NC(=O)c1ncn([C@@H]2O[C@H](CO)[C@@H](O)[C@H]2O)n1 [RIBAVIRIN]", "Vero", 3.72),
]

Form: compound = `NC(=O)c1[nH]nc2nc(S)nc(O)c12` ; pEC50 = 3.74

Form: compound = COc1nc2c(c(Br)nn2C2O[C@H](CO)[C@@H](O)[C@H]2O)c(=O)[nH]1 (some centres undefined) ; pEC50 = 2.80

====

- Tested on: Vero
- test_summary: Toxicity level was reported.
- Format: functional, Chlorocebus sabaeus
Toxic level values by entry

# compound, test_value
rows = [
    ("CSc1nc(O)c2c(C(N)=O)[nH]nc2n1", ">500 µM"),
    ("C[S+]([O-])c1nc(O)c2c(Br)[nH]nc2n1 (stereo not drawn)", ">500 µM"),
]

Note: attention shifts to another entry.
Form: compound = `Oc1[nH]c(Br)nc2nnc(Br)c1-2` ; Toxic level = >50 µM

====

EC50 values by entry
- Tested on: Vero
- test_summary: In vitro antiviral activity against herpes simplex virus type 2 virus was evaluated.
- Assay type: functional
- test_context: Chlorocebus sabaeus, read-out: ED50 (the source's name)

Form: compound = `Oc1[nH]c(Br)nc2nnc(Br)c1-2` ; EC50 = > 0.5 mM

Form: compound = Nc1nc2c(c(C(=O)O)nn2C2O[C@H](CO)[C@@H](O)[C@H]2O)c(=O)[nH]1 (some centres undefined) ; EC50 = > 5 mM

Form: compound = NC(=S)c1nn(C2O[C@H](CO)[C@@H](O)[C@H]2O)c2nc(N)[nH]c(=O)c12 (some centres undefined) ; EC50 = > 5 mM

Form: compound = NC(=O)c1nn(C2O[C@H](CO)[C@@H](O)[C@H]2O)c2nc(N)[nH]c(=O)c12 (some centres undefined) ; EC50 = > 0.5 mM
